Data provenance is ChEMBL document CHEMBL4819103.

measuredOn: Proteasome subunit beta type-8 (Homo sapiens) (UniProt P28062)
Sequence (P28062 whole entry): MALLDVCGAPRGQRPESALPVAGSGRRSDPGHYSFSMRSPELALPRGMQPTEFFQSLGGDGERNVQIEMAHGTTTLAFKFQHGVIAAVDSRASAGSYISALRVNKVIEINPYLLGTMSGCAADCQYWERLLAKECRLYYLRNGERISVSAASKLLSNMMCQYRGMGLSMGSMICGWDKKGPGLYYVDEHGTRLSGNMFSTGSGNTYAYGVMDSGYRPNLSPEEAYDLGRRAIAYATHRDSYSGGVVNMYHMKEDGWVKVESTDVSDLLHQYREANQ
protocolText: Inhibition of human chymotrypsin-like beta 5i subunit of iCP assessed as residual activity using suc-LLVY-AMC as flurogenic substrate at 100 uM for 90 mins by fluorescence-based assay
Given measured Activity, output satisfied if it is greater than or equal to 70% and not satisfied if not.

CS(=O)(=O)c1nc2ccccc2s1 ... satisfied
Cn1c(=S)[nH]c2ccc(NC(=O)Cc3cccnc3)cc21 ... satisfied
O=[N+]([O-])c1ccc2sc(=S)[nH]c2c1 ... not satisfied
S=c1[nH]c2cccc(Br)c2[nH]1 ... satisfied
N#Cc1nc2ccccc2s1 ... not satisfied

Problem: Dear colleague, could you confirm whether C=CC(=O)Nc1nc2ccccc2s1 has Activity at or above 70%?
Solution: not satisfied

Problem: Dear colleague, could you confirm whether Cn1c(=S)[nH]c2cccc(NC(=O)CCc3cccnc3)c21 has Activity at or above 70%?
Solution: satisfied

Problem: Dear colleague, could you confirm whether Cn1c(=S)[nH]c2cccc(NC(=O)Cc3cccnc3)c21 has Activity at or above 70%?
Solution: satisfied

Problem: Dear colleague, could you confirm whether Cc1ccc2nc(S)sc2c1 has Activity at or above 70%?
Solution: not satisfied

Problem: Dear colleague, could you confirm whether Cn1c(=S)[nH]c2ccc(NC(=O)c3ccccc3)cc21 has Activity at or above 70%?
Solution: not satisfied

Problem: Dear colleague, could you confirm whether O=C(CCc1cccnc1)Nc1ccc2[nH]c(=S)oc2c1 has Activity at or above 70%?
Solution: not satisfied

Problem: Dear colleague, could you confirm whether Cn1c(C#N)nc2ccccc21 has Activity at or above 70%?
Solution: satisfied

Problem: Dear colleague, could you confirm whether N#Cc1nc2ccc(Cl)cc2s1 has Activity at or above 70%?
Solution: not satisfied

Problem: Dear colleague, could you confirm whether Cc1ccc2sc(=S)[nH]c2c1 has Activity at or above 70%?
Solution: not satisfied

Problem: Dear colleague, could you confirm whether Nc1ccc2nc(S)sc2c1 has Activity at or above 70%?
Solution: satisfied
